Parameter: IC50. Scope: all listed entries.
Target sequence: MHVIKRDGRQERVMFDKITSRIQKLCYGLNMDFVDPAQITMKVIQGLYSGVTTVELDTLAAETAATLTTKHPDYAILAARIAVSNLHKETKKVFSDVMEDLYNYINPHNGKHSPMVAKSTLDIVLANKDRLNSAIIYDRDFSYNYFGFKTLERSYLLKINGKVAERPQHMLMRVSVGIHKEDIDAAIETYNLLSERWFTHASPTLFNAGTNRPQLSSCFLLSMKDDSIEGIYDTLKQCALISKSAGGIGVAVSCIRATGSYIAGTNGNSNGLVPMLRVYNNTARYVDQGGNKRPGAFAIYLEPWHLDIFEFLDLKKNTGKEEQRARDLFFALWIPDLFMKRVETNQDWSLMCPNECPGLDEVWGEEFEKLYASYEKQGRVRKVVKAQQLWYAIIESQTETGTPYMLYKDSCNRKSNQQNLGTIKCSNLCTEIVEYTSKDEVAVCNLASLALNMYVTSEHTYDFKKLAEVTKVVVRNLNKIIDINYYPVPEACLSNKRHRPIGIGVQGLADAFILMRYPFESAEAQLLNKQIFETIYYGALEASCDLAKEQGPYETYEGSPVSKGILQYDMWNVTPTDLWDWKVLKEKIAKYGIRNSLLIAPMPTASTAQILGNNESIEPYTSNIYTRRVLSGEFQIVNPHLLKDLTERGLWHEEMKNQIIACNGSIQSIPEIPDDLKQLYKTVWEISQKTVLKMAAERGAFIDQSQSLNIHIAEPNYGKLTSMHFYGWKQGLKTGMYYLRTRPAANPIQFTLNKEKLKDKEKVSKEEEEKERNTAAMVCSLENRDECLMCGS

Worked cases, IC50 given:
| Compound | IC50 |
| --- | --- |
| Cc1ccc(F)c([C@@H](C)[C@H](NS(=O)(=O)N2CCc3cc(Cl)ccc3C2)c2n[nH]c(=O)o2)c1C | 0.1 to 1 µM |
| Cc1ccc(F)c([C@H](C)[C@H](NS(=O)(=O)N2CCC(Cl)CC2)c2n[nH]c(=O)o2)c1C | 1 to 10 µM |
| Cc1ccc(F)c([C@H](C)[C@H](NS(=O)(=O)N2CCC(C)CC2)c2n[nH]c(=O)o2)c1C | 1 to 10 µM |

Ask | Provide only the value of recorded IC50 for CC(=O)[C@H]1CCCCN1S(=O)(=O)N[C@H](c1n[nH]c(=O)o1)[C@H](C)c1c(F)ccc(C)c1C
Reply | 1 to 10 µM

Ask | Please list IC50 recorded for the compound Cc1ccc(F)c([C@@H](C)[C@H](NS(=O)(=O)N2C[C@H]3CCC[C@H]3C2)c2n[nH]c(=O)o2)c1C
Reply | 0.1 to 1 µM

Ask | Please supply the value of reported IC50 for the item Cc1ccc(F)c(C(C)[C@H](NS(=O)(=O)N2CCC(c3ccccc3)CC2)c2n[nH]c(=O)o2)c1C (some centres unmarked)
Reply | 1 to 10 µM

Ask | Look up and state reported IC50 for Cc1ccc(F)c([C@@H](C)[C@H](NS(=O)(=O)N2CCC3(CCCN(C)C3)CC2)c2n[nH]c(=O)o2)c1C
Reply | 1 to 10 µM

Ask | Return IC50 (reported value) for this compound: COCC1CCN(S(=O)(=O)N[C@H](c2n[nH]c(=O)o2)[C@@H](C)c2c(F)ccc(C)c2C)CC1
Reply | 1 to 10 µM
